system: HLA-DR0901 protein (Homo sapiens, UniProt P01903+P01911, A100R/A103E/D57H/D86V/F55Y/F60I/F76Y/I96F/K127E/L162R/M171V/P40D/Q125H/Q99R/R33Q/R42F/S133A/S66N/T210M/V115G/W38K/Y107V/Y59G/Y89S)
assay: Peptide binding competition assay, DR0901
pKd: −log10 of the molar value. Residues, ends and D or L forms follow the SMILES beside them.
Cut-off 7 on pKd, inclusive. At or above means satisfied; below means not satisfied.

Qu. Determine whether this compound has pKd no lower than 7: CC[C@H](C)[C@H](NC(=O)[C@H](Cc1ccccc1)NC(=O)[C@H](CC(=O)O)NC(=O)[C@H](CC(C)C)NC(=O)[C@H](CO)NC(=O)[C@H](Cc1ccc(O)cc1)NC(=O)[C@H](CC(N)=O)NC(=O)[C@H](Cc1ccccc1)NC(=O)[C@H](CC(N)=O)NC(=O)[C@@H](N)CC(C)C)C(=O)N[C@H](C(=O)N[C@H](C(=O)N[C@@H](CC(=O)O)C(=O)O)C(C)C)[C@@H](C)CC [LNFNYSLDFIIVD] (H-LNFNYSLDFIIVD-OH)
Ans. satisfied

Qu. Try the compound CC[C@H](C)[C@H](NC(=O)[C@H](CCCCN)NC(=O)[C@H](C)NC(=O)[C@H](CC(C)C)NC(=O)[C@H](CO)NC(=O)[C@H](Cc1ccc(O)cc1)NC(=O)[C@H](CC(N)=O)NC(=O)[C@H](Cc1ccccc1)NC(=O)[C@H](CC(N)=O)NC(=O)[C@@H](N)CC(C)C)C(=O)N[C@H](C(=O)N[C@H](C(=O)N[C@@H](CC(=O)O)C(=O)O)C(C)C)[C@@H](C)CC [LNFNYSLAKIIVD] (H-LNFNYSLAKIIVD-OH)
Ans. satisfied

Qu. Try the compound CC[C@H](C)[C@H](NC(=O)[C@H](CC(N)=O)NC(=O)[C@H](CC(=O)O)NC(=O)[C@H](CC(C)C)NC(=O)[C@H](CO)NC(=O)[C@H](Cc1ccc(O)cc1)NC(=O)[C@H](CC(N)=O)NC(=O)[C@H](Cc1ccccc1)NC(=O)[C@H](CC(N)=O)NC(=O)[C@@H](N)CC(C)C)C(=O)N[C@H](C(=O)N[C@H](C(=O)N[C@@H](CC(=O)O)C(=O)O)C(C)C)[C@@H](C)CC [LNFNYSLDNIIVD] (H-LNFNYSLDNIIVD-OH)
Ans. satisfied

Qu. Try the compound CC[C@H](C)[C@H](NC(=O)[C@H](CCCCN)NC(=O)[C@H](CC(=O)O)NC(=O)[C@H](CC(C)C)NC(=O)[C@H](CO)NC(=O)[C@H](Cc1ccc(O)cc1)NC(=O)[C@H](CC(N)=O)NC(=O)[C@H](Cc1ccccc1)NC(=O)[C@H](CC(N)=O)NC(=O)[C@@H](N)CC(C)C)C(=O)N[C@@H](CC(C)C)C(=O)N[C@H](C(=O)N[C@@H](CC(=O)O)C(=O)O)C(C)C [LNFNYSLDKILVD] (H-LNFNYSLDKILVD-OH)
Ans. not satisfied

Qu. Try the compound CC[C@H](C)[C@H](NC(=O)[C@H](CCCCN)NC(=O)[C@H](CC(=O)O)NC(=O)[C@H](CC(C)C)NC(=O)[C@H](Cc1ccc(O)cc1)NC(=O)[C@H](Cc1ccc(O)cc1)NC(=O)[C@H](CC(N)=O)NC(=O)[C@H](Cc1ccccc1)NC(=O)[C@H](CC(N)=O)NC(=O)[C@@H](N)CC(C)C)C(=O)N[C@H](C(=O)N[C@H](C(=O)N[C@@H](CC(=O)O)C(=O)O)C(C)C)[C@@H](C)CC [LNFNYYLDKIIVD] (H-LNFNYYLDKIIVD-OH)
Ans. not satisfied

Qu. Try the compound CC[C@H](C)[C@H](NC(=O)[C@H](CCCCN)NC(=O)[C@H](CC(=O)O)NC(=O)[C@H](CC(C)C)NC(=O)[C@H](C)NC(=O)[C@H](Cc1ccc(O)cc1)NC(=O)[C@H](CC(N)=O)NC(=O)[C@H](Cc1ccccc1)NC(=O)[C@H](CC(N)=O)NC(=O)[C@@H](N)CC(C)C)C(=O)N[C@H](C(=O)N[C@H](C(=O)N[C@@H](CC(=O)O)C(=O)O)C(C)C)[C@@H](C)CC [LNFNYALDKIIVD] (H-LNFNYALDKIIVD-OH)
Ans. satisfied

Qu. Try the compound CC[C@H](C)[C@H](NC(=O)[C@H](CCCCN)NC(=O)[C@H](CC(=O)O)NC(=O)[C@H](CC(C)C)NC(=O)[C@H](CO)NC(=O)[C@H](Cc1ccc(O)cc1)NC(=O)[C@H](CC(N)=O)NC(=O)[C@@H](NC(=O)[C@H](CC(N)=O)NC(=O)[C@@H](N)CC(C)C)C(C)C)C(=O)N[C@H](C(=O)N[C@H](C(=O)N[C@@H](CC(=O)O)C(=O)O)C(C)C)[C@@H](C)CC [LNVNYSLDKIIVD] (H-LNVNYSLDKIIVD-OH)
Ans. not satisfied

Qu. Try the compound CC[C@H](C)[C@H](NC(=O)[C@H](CCCCN)NC(=O)[C@H](CC(=O)O)NC(=O)[C@H](CC(C)C)NC(=O)[C@H](CO)NC(=O)[C@H](Cc1ccc(O)cc1)NC(=O)[C@H](CC(N)=O)NC(=O)[C@H](Cc1ccccc1)NC(=O)[C@H](CC(N)=O)NC(=O)[C@@H](N)CC(C)C)C(=O)N[C@@H](CCCNC(=N)N)C(=O)N[C@H](C(=O)N[C@@H](CC(=O)O)C(=O)O)C(C)C [LNFNYSLDKIRVD] (H-LNFNYSLDKIRVD-OH)
Ans. not satisfied

Qu. Try the compound CC[C@H](C)[C@H](NC(=O)[C@H](CCCCN)NC(=O)[C@H](CC(=O)O)NC(=O)[C@H](CC(C)C)NC(=O)[C@H](CO)NC(=O)[C@H](Cc1ccc(O)cc1)NC(=O)[C@H](CC(N)=O)NC(=O)[C@H](Cc1ccccc1)NC(=O)[C@H](CC(N)=O)NC(=O)[C@@H](N)CC(C)C)C(=O)N[C@@H](CCC(=O)O)C(=O)N[C@H](C(=O)N[C@@H](CC(=O)O)C(=O)O)C(C)C [LNFNYSLDKIEVD] (H-LNFNYSLDKIEVD-OH)
Ans. not satisfied

These data points were gathered from paper PMC4061985.
